tested on: DLD1 NRF2-GOF; assay: TC50 cytotoxicity; higher = less toxic; details: 72 h; CellTox Green cytotoxicity
List of TC50 cytotoxicity values.

Oc1nc(-c2ccc(C(F)(F)F)cc2)nc2c1CSCC2 [XAV-939] : > 10 µM
N#CCNC(=O)c1ccc(-c2ccnc(Nc3ccc(N4CCOCC4)cc3)n2)cc1 [Momelotinib] : > 10 µM
NC(=O)/C(=C/n1cnc(-c2cc(C(F)(F)F)cc(C(F)(F)F)c2)n1)c1cncnc1 [KPT-8602] : > 10 µM

Asked: Give the measured TC50 cytotoxicity of CCOCc1nc2c(N)nc3ccccc3c2n1CC(C)(C)O [Resiquimod] .
Given back: > 10 µM

Asked: Give the measured TC50 cytotoxicity of C[C@H]1CNCCCN1S(=O)(=O)c1cccc2cncc(F)c12 [Ripasudil] .
Given back: > 10 µM

* * *

List of drug sensitivity score values.
test system: DLD1 NRF2-GOF; assay: drug sensitivity score (DSS) cytotoxicity (DSS score); higher = more toxic; extreme values may be limits of the assay; details: 72 h; CellTox Green cytotoxicity
Form field (numeric): enter value without unit.

Solved cases below.
Cn1cc(-c2[nH]c3cc(NC(=O)[C@H](N)C4CCCCC4)cc4c3c2C=NNC4=O)cn1 : 2.7
N#Cc1ccc(COC[C@H]2O[C@@H](n3c(NCc4ccc(Cl)c(Cl)c4)nc4c(N)ncnc43)[C@H](O)[C@@H]2O)cc1 : 0
O=C1NC(=O)[C@@H](c2cn3c4c(cccc24)CCC3)[C@@H]1c1c[nH]c2ccccc12 [Tivantinib] : 0.9

Asked: Give the measured drug sensitivity score of C/C(=C\c1csc(C)n1)[C@@H]1C[C@@H]2O[C@]2(C)CCC[C@H](C)[C@H](O)[C@@H](C)C(=O)C(C)(C)[C@@H](O)CC(=O)N1 [Ixabepilone] .
Given back: 0.5

* * *

test system: DLD1 NRF2-GOF; assay: drug sensitivity score (DSS) cytotoxicity (DSS score); higher = more toxic; extreme values may be limits of the assay; conditions: 72 h; CellTox Green cytotoxicity
endpoint: drug sensitivity score
Form field (numeric): enter value without unit.

Cn1ncnc1[C@H]1c2n[nH]c(=O)c3cc(F)cc(c23)N[C@@H]1c1ccc(F)cc1 [Talazoparib] : 0
CN(C)Cc1ccc(S(=O)(=O)n2ccc(/C=C/C(=O)NO)c2)cc1 [Resminostat] : 0

Now consider the entry below.
Asked: Give the measured drug sensitivity score of CC(=O)O[C@@]12CO[C@@H]1C[C@H](O)[C@@]1(C)C(=O)[C@H](O)C3=C(C)[C@@H](OC(=O)[C@H](O)[C@@H](NC(=O)OC(C)(C)C)c4ccccc4)C[C@@](O)([C@@H](OC(=O)c4ccccc4)[C@H]21)C3(C)C [Docetaxel] .
Given back: 6.6

* * *

test system: DLD1 NRF2-GOF; assay: drug sensitivity score (DSS) cytotoxicity (DSS score); higher = more toxic; extreme values may be limits of the assay; details: 72 h; CellTox Green cytotoxicity
endpoint: drug sensitivity score
Form field (numeric): enter value without unit.

C#Cc1cccc(Nc2ncnc3cc4c(cc23)OCCOCCOCCO4)c1 : 0
c1cn2cc(-c3ccc4cn[nH]c4c3)nc(Nc3ccc(N4CCOCC4)cc3)c2n1 : 0
Nc1nc(OCc2cc(Br)cs2)c2[nH]cnc2n1 : 0
NC(=O)c1cccc(-c2cccc(OC(=O)NC3CCCCC3)c2)c1 : 0
CC[C@@H]1CN(C(=O)NCC(F)(F)F)C[C@@H]1c1cnc2cnc3[nH]ccc3n12 : 0
CC(C)N(CCCNC(=O)Nc1ccc(C(C)(C)C)cc1)C[C@H]1O[C@@H](n2cc(Br)c3c(N)ncnc32)[C@H](O)[C@@H]1O : 0
CNC(=O)c1nn(C)c2c1C(C)(C)Cc1cnc(Nc3ccc(N4CCN(C)CC4)cc3)nc1-2 : 0

Now consider the entry below.
Asked: Give the measured drug sensitivity score of Cn1nccc1Nc1nccc(-c2ccn([C@H](CO)c3ccc(Cl)c(F)c3)c(=O)c2)n1 .
Given back: 0
